Consider the following compounds; for each one, report its IC50.
- METHOD DESCRIPTION: Inhibition of soybean lipoxygenase using arachidonic acid as substrate
- Parameters: species or system Glycine max

Exercise: IC50 lookup needed for O=C(N/N=C/c1c(-c2ccccc2)no[n+]1[O-])c1ccc2c(c1)OCO2 , thanks.
Key: > 100 µM

Exercise: IC50 lookup needed for O=C(N/N=C/c1c(-c2ccccc2)no[n+]1[O-])c1cccnc1 , thanks.
Key: > 100 µM

Exercise: IC50 lookup needed for Cc1c(C(=O)N/N=C/c2cccs2)no[n+]1[O-] , thanks.
Key: > 100 µM

====

- METHOD DESCRIPTION: Cytotoxicity against human HT-29 cells expressing NF-kappaB-hrGFP assessed as highest non-cytotoxic dose for 100% cell survival after 24 hrs by MTT assay
- Format: cell-based
- MEASUREMENT SETUP: read-out: Activity
PROPERTY: MNTC at 24 h (µM)
Your answer should be a plain number; it is taken to be in µM.

Exercise: MNTC at 24 h lookup needed for Cc1c(/C=N/NC(=O)c2cnn(-c3ccccc3)c2)no[n+]1[O-] (mixture of isomers) , thanks.
Key: 100

Exercise: MNTC at 24 h lookup needed for Cc1c(C(=O)N/N=C/c2cccs2)no[n+]1[O-] , thanks.
Key: 100

Exercise: MNTC at 24 h lookup needed for Cc1c(C(=O)N/N=C/c2ccc3c(c2)OCO3)no[n+]1[O-] , thanks.
Key: 100

Exercise: MNTC at 24 h lookup needed for Cc1c(/C=N/NC(=O)c2ccc3c(c2)OCO3)no[n+]1[O-] , thanks.
Key: 400

Exercise: MNTC at 24 h lookup needed for O=S(=O)(c1ccccc1)c1no[n+]([O-])c1S(=O)(=O)c1ccccc1 , thanks.
Key: 20
